# System: 661W or C6 cells
# experimentalDetails: MTT assay, protection against calcium-ionophore A23187
# Type: cell-based
# conditionParameters: compound 800 pM; 1 μM A23187, 24 h
What MTT, % protection was measured for each of the following?

Measured MTT, % protection, Cc1ccc2c(c1)C(O)(Cc1ccccn1)C(=O)N2CCc1ccccc1 (centres unmarked) [Example 9] : 62.5%,

Measured MTT, % protection, COc1cc(CC2(OC(=O)c3ccccc3)C(=O)N(CC(C)C)c3ccc(Cl)cc32)cc(OC)c1OC (centres unmarked) [Example 35] : 113.5%,

Measured MTT, % protection, O=C1N(CCN2CCCCC2)c2ccc(Cl)cc2C1(O)Cc1ccccn1 (centres unmarked) [Example 4] : 61.5%,

Measured MTT, % protection, CCN1C(=O)C(Cc2ccc(OC)cc2O)(OC(=O)c2ccccc2)c2ccccc21 (centres unmarked) [Example 57] : 71%,

Measured MTT, % protection, COc1ccc(O)c(CC2(OC(=O)c3ccccc3)C(=O)N(CC(C)C)c3ccccc32)c1 (centres unmarked) [Example 54] : 85.8%,

Measured MTT, % protection, COc1cc(CC2(O)C(=O)N(CC(C)C)c3ccc(C)cc32)cc(OC)c1OC (centres unmarked) [Example 37] : 68.4%,

Measured MTT, % protection, CCN1C(=O)C(Cc2cc(OC)ccc2O)(OC(=O)c2ccccc2)c2cc(Cl)ccc21 (centres unmarked) [Example 62] : 86.4%,

Measured MTT, % protection, COc1cc(CC2(OC(=O)c3ccccc3)C(=O)N(CC(C)C)c3ccccc32)cc(OC)c1OC (centres unmarked) [Example 49] : 78.3%,
